The entries below come with measured viability at 1 h, 10 µM values attached.
# test_name: Cell viability (MTT) assay
# Type: cell-based
# measurement_parameters: rat, RBL-2H3 cells; 10 µM, 1 h treatment, washed, viability measured at 24 h
property_name: viability at 1 h, 10 µM (%)

compound: C=C1CC[C@@H]2[C@](C)(CO)[C@H](O)CC[C@@]2(C)[C@@H]1C/C=C1/C(=O)OC[C@H]1O [AGP, andrographolide]
scale_unit: %
result: 81.3
//
compound: C=C1CCC2C3(C)COC(c4ccccc4)OC3CCC2(C)C1C/C=C1/C(=O)OCC1OC(C)=O (centres unmarked) [SRS143]
scale_unit: %
result: 107

----------
# test_name: Cell viability (MTT) assay
# Assay type: cell-based
# measurement_parameters: rat, RBL-2H3 cells; 50 µM, 1 h treatment, washed, viability measured at 24 h

compound: O=c1c(O)c(-c2ccc(O)c(O)c2)oc2cc(O)cc(O)c12 [Quercetin, quercetin, reference compound]
viability at 1 h, 50 µM: 106%

----------
# System: RBL-2H3 cells
# test_name: β-hexosaminidase release assay, IgE-FcεRI (DNP-IgE/DNP-BSA) stimulation
# Format: cell-based
# measurement_parameters: Rattus norvegicus, RBL-2H3; IgE-FceRI stimulation, 1 h (Fig. 4C); 50% mark on concentration axis; read-out: IC50, inhibition of β-hexosaminidase release
pIC50: −log10 of the molar value.

molecule: C=C1CCC2C3(C)COC(c4ccccc4)OC3CCC2(C)C1C/C=C1/C(=O)OCC1OC(C)=O (stereo not shown)
pIC50: 5.19

Values were extracted from paper PMC13046583.
